Tested on: KRAS-mutant PDC multicell tumor spheroid viability;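 also: viability read after seven days of drug exposure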
Assay: Anticancer human tumor 521955-158-R2-J5-PDC patient-derived pancreatic carcinoma cell line growth inhibition [KRAS2]
Conditions: second compound 0.1 µM; first compound 0.1 µM; active compounds read low
measurement type: viability, T/C (%)
State just the number; it will be interpreted in %.

Before answering, review these 8 worked examples.
{"molecule": "CCNC(=O)CC1N=C(c2ccc(Cl)cc2)c2cc(OC)ccc2-n2c(C)nnc21 (stereo not given) + C=CC(=O)N1CCN(c2nc(=O)n(-c3c(C)ccnc3C(C)C)c3nc(-c4c(O)cccc4F)c(F)cc23)C(C)C1", "viability, T/C [%]": 93.4}
{"molecule": "CC1COCCN1c1cc(-c2ccnn2C)c2ccnc(-c3ccn[nH]3)c2n1 (stereo not given) + CC1OCC2(CCN(c3cnc(Sc4ccnc(N)c4Cl)c(N)n3)CC2)C1N", "viability, T/C [%]": 7.87}
{"molecule": "CC1(C)CCC(CN2CCN(c3ccc(C(=O)NS(=O)(=O)c4ccc(NCC5CCOCC5)c([N+](=O)[O-])c4)c(Oc4cnc5[nH]ccc5c4)c3)CC2)=C(c2ccc(Cl)cc2)C1 + CNCc1ccccc1-c1csc(C(C)Nc2nc(C)nc3cc(OC)c(OC)cc23)c1", "viability, T/C [%]": 98.8}
{"molecule": "Cn1nccc1Nc1nccc(-c2cc3c(s2)C(C)(C)N(CCN2CCOCC2)C3=O)n1 + C=CC(=O)N1CCN(c2nc(OCC3CCCN3C)nc3c2CCN(c2cccc4cccc(C)c24)C3)CC1CC#N", "viability, T/C [%]": 76.6}
{"molecule": "CC(C)NCC(C(=O)N1CCN(c2ncnc3c2C(C)CC3O)CC1)c1ccc(Cl)cc1 (stereo not given) + C=CC(=O)N1CCN(c2nc(OCC3CCCN3C)nc3c2CCN(c2cccc4cccc(C)c24)C3)CC1CC#N", "viability, T/C [%]": 103}
{"molecule": "Cn1nccc1Nc1nccc(-c2cc3c(s2)C(C)(C)N(CCN2CCOCC2)C3=O)n1 + C=CC(=O)N1CCN(c2nc(=O)n(-c3c(C)ccnc3C(C)C)c3nc(-c4c(O)cccc4F)c(F)cc23)C(C)C1", "viability, T/C [%]": 94.9}
{"molecule": "Cn1ncnc1[C@H]1c2n[nH]c(=O)c3cc(F)cc(c23)N[C@@H]1c1ccc(F)cc1 + COc1cc2nc(C)nc(NC(C)c3cc(N)cc(C(F)(F)F)c3)c2cc1OC1CCOC1", "viability, T/C [%]": 66.2}
{"molecule": "CC1OCC2(CCN(c3cnc(Sc4ccnc(N)c4Cl)c(N)n3)CC2)C1N (stereo not given) + C=CC(=O)N1CCN(c2nc(=O)n(-c3c(C)ccnc3C(C)C)c3nc(-c4c(O)cccc4F)c(F)cc23)C(C)C1", "viability, T/C [%]": 96.4}

Which viability, T/C is reported with KRAS-mutant PDC multicell tumor spheroid viability for this entry: CC(=O)OC12COC1CC(O)C1(C)C(=O)C(O)C3=C(C)C(OC(=O)C(O)C(NC(=O)OC(C)(C)C)c4ccccc4)CC(O)(C(OC(=O)c4ccccc4)C21)C3(C)C (stereo not given) + C=CC(=O)N1CCN(c2nc(=O)n(-c3c(C)ccnc3C(C)C)c3nc(-c4c(O)cccc4F)c(F)cc23)C(C)C1 ?
15.1

Which viability, T/C is reported with KRAS-mutant PDC multicell tumor spheroid viability for this entry: COc1cc(Nc2ncc3c(n2)-c2ccc(Cl)cc2C(c2c(F)cccc2OC)=NC3)ccc1C(=O)O + CNCc1ccccc1-c1csc(C(C)Nc2nc(C)nc3cc(OC)c(OC)cc23)c1 ?
48.2
